- Test system: MS2 coat protein
- MEASUREMENT_PROTOCOL: apparent KD of MS2 coat protein; designed switch direction (-1 OFF switch, 1 ON switch): -1; higher = weaker reporter binding
- ASSAY_CONTEXT: input ligand: FMN 200 uM
Note to self: values exactly at 50 nM are t. So apparent KD of MS2 coat protein at or above 50 nM is t, below is f.

Dear colleague, could you confirm whether CGGGUUCGUGUUAGGAUAUGCACGCACCCGUUGCGGCAGAAGGAACAUGAGGAUCACCCAUGUGAAUAAGAAAG [BmEX4 A.21] (Eterna round: R97, puzzle: Brourd's mod of Exclusion 4) has apparent KD of MS2 coat protein at or above 50 nM?
f

Dear colleague, could you confirm whether AAAGCGUCAGGAUAUCCAAUAUAUGACAUGAGGAUCACCCAUGUUUCCACUCGUACCUCCGGAGAAGGGACAAAUA [Ex5 #86] (Eterna round: R97, puzzle: Exclusion 5) has apparent KD of MS2 coat protein at or above 50 nM?
f

Dear colleague, could you confirm whether GUGUGCAGACGGAGAUCCUACAUGAGGAUCACCCAUGUCUCACUAGCUUUUUGCUCGUCUUAUCCUCCUCUGUUCUC [Elimod 26 - Jieux - Sensor, turn-off variant 1] (Eterna round: R97, puzzle: Sensor, turn-off variant 1) has apparent KD of MS2 coat protein at or above 50 nM?
t

Dear colleague, could you confirm whether CAAUUCCGAGGAUAUACAUGAGGAUCACCCAUGUCGGGCCUCAGCGUUUAGCGCCUAAGUAGAAGGUGGGUUUC [JL Riri mod 4] (Eterna round: R96, puzzle: Exclusion 3) has apparent KD of MS2 coat protein at or above 50 nM?
f

Dear colleague, could you confirm whether GUGGAGGUAGGAUAUCCGCUUCCGGACAUGAGGAUCACCCAUGUUGUUCGGAUUGGACAGGGAGAAGGGCCCACAA [Eternabot (Original) Solution 37] (Eterna round: R97, puzzle: Exclusion 5) has apparent KD of MS2 coat protein at or above 50 nM?
f

Dear colleague, could you confirm whether UUACGGAUAGAGGAUAUAUUAAGGAAGGUUACGAUAGAAGGCUAGACAUGAGGAUCACCCAUGUAUAUUGGGAU [JR_Ex6_Sub072] (Eterna round: R97, puzzle: Exclusion 6) has apparent KD of MS2 coat protein at or above 50 nM?
t

Dear colleague, could you confirm whether AGCCAUCGUGUGAGGAUAUCGAUAAGUUCGAGUUUCGAGAAGGCACAUGAGGAUCACCCAUGUCGUGAAAGAAA [BmEX4 A.28] (Eterna round: R97, puzzle: Brourd's mod of Exclusion 4) has apparent KD of MS2 coat protein at or above 50 nM?
t

Dear colleague, could you confirm whether UUUUACAGGCUUAGAUCCUACAUGAGGAUCACCCAUGUGGUGGCGUGUCGUGAGACAUGCCACUAAGCUCGUCUUGU [JL TOV1 3.73] (Eterna round: R97, puzzle: Sensor, turn-off variant 1) has apparent KD of MS2 coat protein at or above 50 nM?
t

Dear colleague, could you confirm whether AGUUCUAACACGUUGGUGUUAGUACCAUAAGCUUGUGAUACAUGAGGAUCACCCAUGUCCUCAUAAGCUCGUCUUAU [salish99_TOv2_r3_1001] (Eterna round: R96, puzzle: Sensor v3, turn-off variant 2) has apparent KD of MS2 coat protein at or above 50 nM?
f

Dear colleague, could you confirm whether GCCGUAAGUGUGAGGAUAUACCUAUGGAAACAUAGGUAGAAGGCACAUGAGGAUCACCCAUGUUCUCAAUCGGC [Mat - Exclusion 4 - Eli Mod - D5] (Eterna round: R97, puzzle: Brourd's mod of Exclusion 4) has apparent KD of MS2 coat protein at or above 50 nM?
t

Dear colleague, could you confirm whether CCACGACAUGAGGAUCACCCAUGUGAGGAUAUGACCUGAAAAGCGUGAGCAGUUUGUAUCAGAAGGCGCGUGGG [salish99_ex1_r4_066] (Eterna round: R97, puzzle: Exclusion 1) has apparent KD of MS2 coat protein at or above 50 nM?
t

Dear colleague, could you confirm whether UACAGACAUGAGGAUCACCCAUGUUAGGAUAUGCAGAACUCUACUCACGUGGCGUUUAGCAGAAGGAAUACGGG [Eternabot (L1) Solution 68] (Eterna round: R97, puzzle: Exclusion 1) has apparent KD of MS2 coat protein at or above 50 nM?
t

Dear colleague, could you confirm whether UUGUGCACGCUGCGAUCCUACAUGAGGAUCACCCAUGUGGUCUGGUGGCGUGGGUCACCGGACUUGGCUCGUCUUGU [salish99_S_TOV1_R5_080] (Eterna round: R97, puzzle: Sensor, turn-off variant 1) has apparent KD of MS2 coat protein at or above 50 nM?
t

Dear colleague, could you confirm whether GACCUAUAGGUAGGAUAUCAUUGCGAUUAGCUAUGAGAAGGACCACAUGAGGAUCACCCAUGUCCUCCAAUUAACCAUAAGGUC [Fiskers ExNg1 - 5] (Eterna round: R96, puzzle: Exclusion NG 1) has apparent KD of MS2 coat protein at or above 50 nM?
t

Dear colleague, could you confirm whether CUGUACAUAGGAUAUAGUUGUUUUUACAUGAGGAUCACCCAUGUUACUCCUCUCUCUCUUCUAGAAGGAUGUUUUU [JR_E5_Sub007] (Eterna round: R96, puzzle: Exclusion 5) has apparent KD of MS2 coat protein at or above 50 nM?
t

Dear colleague, could you confirm whether CAAUAGGGAGGAUAUCCAAUAUAUGACAUGAGGAUCACCCAUGUUUCCACUCGUACCUCCGGAGAAGGCCCAUAAC [Ex5 #7] (Eterna round: R97, puzzle: Exclusion 5) has apparent KD of MS2 coat protein at or above 50 nM?
f

Dear colleague, could you confirm whether ACUUGUUGUCCUUGAUAUUACAUGAGGAUCACCCAUGUUAUUGUGAUUAUGAUGUGUAAGUUUGUUGCUCGUCUUAU [JR_STOV1_Sub065] (Eterna round: R97, puzzle: Sensor, turn-off variant 1) has apparent KD of MS2 coat protein at or above 50 nM?
t

Dear colleague, could you confirm whether CUAUGAGCUGAGGAUAUCUGCAGGUUGGGCCUGGGAGAAGGCGGCACAUGAGGAUCACCCAUGUGACCGAAAUA [Mod2 Ex6 A.17 by Nando] (Eterna round: R97, puzzle: Exclusion 6) has apparent KD of MS2 coat protein at or above 50 nM?
f

* * *

- System: MS2 coat protein
- MEASUREMENT_PROTOCOL: apparent KD of MS2 coat protein; designed switch direction (-1 OFF switch, 1 ON switch): -1; higher = weaker reporter binding
- ASSAY_CONTEXT: Eterna round: R95; input ligand: microRNA oligo, concentration not stated
Note to self: values exactly at 40 nM are condition met. So apparent KD of MS2 coat protein at or above 40 nM is condition met, below is condition not met.

Dear colleague, could you confirm whether GUAUAACUACACGGGCUCAACAUGAGGAUCACCCAUGUCACAUACGCAAGCUUUUUGCUUGUCUUAUCUGUCCGUGA [Quleorraa] (puzzle: Sensor v3, turn-off variant 1) has apparent KD of MS2 coat protein at or above 40 nM?
condition not met

Dear colleague, could you confirm whether GGAAAACAUGAGGAUCACCCAUGUAAGGAUAUGCAAAAGGAUAUAGAAGGAAUAAAAAGCAGAAGGUACAAAGG [salish99-ex1_r3_096] (puzzle: Exclusion 1) has apparent KD of MS2 coat protein at or above 40 nM?
condition met

Dear colleague, could you confirm whether GCCAGAGCAGGAUAUUCAAUAUUCCACAUGAGGAUCACCCAUGUCCAGCGAAAGCUGGAGGGAGAAGGGCUCUGGC [Fiskers Ex 5 - 8] (puzzle: Exclusion 5) has apparent KD of MS2 coat protein at or above 40 nM?
condition met

Dear colleague, could you confirm whether UAUAAUCGAGGAUAUACAUGAGGAUCACCCAUGUGUUGCCGCGUGACAUGAUCGUCAGGUAGAAGGCGAUUAUA [Exclusion 3 - Mod of Jieux's Gilly Gone Silly 23 v.10] (puzzle: Exclusion 3) has apparent KD of MS2 coat protein at or above 40 nM?
condition met

Dear colleague, could you confirm whether AUUUUAAUAUAGGAUAUCGAAAUUAUUAUUUAACGAGAAGGAUGAACAUGAGGAUCACCCAUGUGGUAUCAUGG [Mat - Exclusion 6 - JL Mod - D31] (puzzle: Exclusion 6) has apparent KD of MS2 coat protein at or above 40 nM?
condition met

* * *

- Tested on: MS2 coat protein
- MEASUREMENT_PROTOCOL: apparent KD of MS2 coat protein; designed switch direction (-1 OFF switch, 1 ON switch): -1; higher = weaker reporter binding
- ASSAY_CONTEXT: input ligand: FMN 200 uM
Note to self: values exactly at 100 nM are 1. So apparent KD of MS2 coat protein at or above 100 nM is 1, below is 0.

Dear colleague, could you confirm whether AGUGUGUGGCAGGAUAUGCGAUUUGUAAGUAUUGCAGAAGGGUCUACAUGAGGAUCACCCAUGUGUGCGGUUGA [Ex6 #25] (Eterna round: R97, puzzle: Exclusion 6) has apparent KD of MS2 coat protein at or above 100 nM?
1

Dear colleague, could you confirm whether UAUUUAUAUGAAGGAUAUACUUAACAUGAGGAUCACCCAUGUGGUGUUGUGAGUGAGUGAGUUUAGUAGAAGGUCAAUUAUUUU [JMF's solution 30] (Eterna round: R96, puzzle: Exclusion NG 2) has apparent KD of MS2 coat protein at or above 100 nM?
1

Dear colleague, could you confirm whether AGAUCACAUGAGGAUCACCCAUGUCAGGAUAUCGUCACUGGAGCUUCGGCUCCAGUGACGAGAAGGGAUAAUUA [E1/4-A1] (Eterna round: R97, puzzle: Exclusion 1) has apparent KD of MS2 coat protein at or above 100 nM?
1

Dear colleague, could you confirm whether GGUCCGAGUGUGAGGAUAUGCUGGUCCUUGGAUCAGCAGAAGGCACAUGAGGAUCACCCAUGUGGUGUCGGACC [Mat - Exclusion 4 - Eli Mod - D32] (Eterna round: R97, puzzle: Brourd's mod of Exclusion 4) has apparent KD of MS2 coat protein at or above 100 nM?
1

Dear colleague, could you confirm whether AGCUAGAUAGGAUAUGCCCGGGAUAACAUGAGGAUCACCCAUGUGACCGAUUCAUGUCCAGCAGAAGGGUUUGGGA [Mod of ViennaUCT 8 - Jieux - Exclusion 5] (Eterna round: R97, puzzle: Exclusion 5) has apparent KD of MS2 coat protein at or above 100 nM?
0

Dear colleague, could you confirm whether GCUGGACGAGGAUAUAUAUGACGUGCUUCGGCACGAAGAUCACAUGAGGAUCACCCAUGUAGAAGGUGUCCAGC [E2/8-B2] (Eterna round: R97, puzzle: Exclusion 2) has apparent KD of MS2 coat protein at or above 100 nM?
1

Dear colleague, could you confirm whether UCACGGGACUGAGGAUAUACAUCAACAAUGGUUGUAGAAGGCAGAAGGUUGAAUCAUAUACAAAACAUGAGGAUCACCCAUGUA [JR_ExcNG1_Sub032] (Eterna round: R96, puzzle: Exclusion NG 1) has apparent KD of MS2 coat protein at or above 100 nM?
0

Dear colleague, could you confirm whether AUAUACGGAGGAUAUACUUGAGGAUCACCCAAGUGGGAUCCCGUUUGGGCGGUAAAUAGUAGAAGGCCGACCCA [jl-ex3-4.41 ViennaUCT mod] (Eterna round: R97, puzzle: Exclusion 3) has apparent KD of MS2 coat protein at or above 100 nM?
0

Dear colleague, could you confirm whether CAGAGGAGACGGAGAUCCAACAUGAGGAUCACCCAUGUCUCAAAAGCUUUUUGCUUGUCUUAUCCUCCUCUCUUCAC [Mat - Sensor, turn-off var - Eli Mod - D59] (Eterna round: R97, puzzle: Sensor, turn-off variant 1) has apparent KD of MS2 coat protein at or above 100 nM?
0
